- Tested on: MDA-MB-231 cells expressing mutant p53
- ASSAY_TEXT: Doxorubicin cell-killing IC50 in TNBC cells expressing mutant p53, with or without tamoxifen
- Type: cell-based
- CONDITIONS: Homo sapiens, MDA-MB-231, read-out: IC50 of doxorubicin with addition of tamoxifen
RECORDED_ENDPOINT: IC50 (µM)
One number for each entry, in µM.

COc1cccc2c1C(=O)c1c(O)c3c(c(O)c1C2=O)C[C@@](O)(C(=O)CO)C[C@@H]3O[C@H]1C[C@H](N)[C@H](O)[C@H](C)O1 [doxorubicin] has a reported IC50 of 0.15

Measured values drawn from patent US12673032B2 for this set.
